Tested on: FXR:RXRa (NR concentration 270 nM, RXRa partner concentration 90 nM)
METHOD_SUMMARY: PBM binding z-score (relative to random genomic background probes); higher = stronger binding; sequences stand for … in GC…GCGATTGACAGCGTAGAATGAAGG
READOUT_KIND: PBM binding z-score
When you answer, write just the number.

Below, 3 sequences whose answers are already recorded.
CCTTACGGGTCACTGACACGTTATAGCATTTGGA	5.87
GGAACGAGGGCATTCCAGTTGATAGCATGGCGAT	1.15
GCTATTAGTTCAAAGGGCAACCGAATGATTCTCG	2.78

In plain terms, TGACAAAGTTCAAAGGTAACGTAAGTATCCACAC has a documented PBM binding z-score of 6.96

In plain terms, CCTACTGGGCCAAGGTCAATGATCAGTCAAAGCA has a documented PBM binding z-score of 2.52

In plain terms, ACTTACGGGTCAACGAGGTTATGGCACGCGTATA has a documented PBM binding z-score of 7.06

In plain terms, CGTCCAAGGTCAAGGTCAGTGTAAGAGACTCGAA has a documented PBM binding z-score of 7.52

In plain terms, CGTCAAAGTTCAACTAAGCTAACGTAAAGCACGC has a documented PBM binding z-score of 6.6

Entry source: the supplement of paper PMC6555819
